- target desc: T1, human programmed cell death protein 1 (hPD-1) C93S (aa 24-167) (Homo sapiens, UniProt Q15116, C93S)
- T1 construct: made as a fusion with a TEV site and human Fc; the Fc was cut off with TEV protease; source: Expi293F, purified (Protein A, TEV cleavage of Fc, SEC; monomer fractions); not shown: Fc (human), C-terminal, cleaved
- T1 sequence (Q15116 24-167 C93S): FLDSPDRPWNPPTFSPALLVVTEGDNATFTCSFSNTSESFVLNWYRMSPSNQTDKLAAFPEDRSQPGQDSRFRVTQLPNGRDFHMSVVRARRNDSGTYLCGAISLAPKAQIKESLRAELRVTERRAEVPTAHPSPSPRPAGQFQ
- protocol description: SPR; Carterra LSA; Fab from the ammonium sulfate precipitate of the culture supernatant immobilised on a NiHC200M chip; hPD-1 (1-1024 nM) or mPD-1-Fc (4-1024 nM) as analyte, fourfold dilution series, no regeneration; HBS-EP pH 7.4, 25 °C; medians over the spots of a construct, KD = koff/kon
- test conditions: one partner purified
Each record is given Yes if its reported kon is strictly below 8000 M⁻¹ s⁻¹. Records at or above 8000 M⁻¹ s⁻¹ are given No.

Prompt: Does this binder meet the criterion kon < 8000 M⁻¹ s⁻¹? toripalimab Fab L.I29Y (Fab, V domains shown, as the heavy chain of Sm3; light chain of Sm3 with this change; numbers count from the chain's first residue; source: Brevibacillus, culture supernatant (ammonium sulfate precipitate); not shown: 6xHis, C-terminal, kept; 6xHN, C-terminal, kept) VH: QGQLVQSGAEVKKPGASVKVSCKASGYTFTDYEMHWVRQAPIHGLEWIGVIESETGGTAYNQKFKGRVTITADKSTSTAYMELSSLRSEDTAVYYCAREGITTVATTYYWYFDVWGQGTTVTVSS VL: DVVMTQSPLSLPVTLGQPASISCRSSQSYVHSNGNTYLEWYLQKPGQSPQLLIYKVSNRFSGVPDRFSGSGSGTDFTLKISRVEAEDVGVYYCFQGSHVPLTFGQGTKLEIK
Response: No

Prompt: Does this binder meet the criterion kon < 8000 M⁻¹ s⁻¹? toripalimab Fab L.P100L (Fab, V domains shown, as the heavy chain of Sm3; light chain of Sm3 with this change; numbers count from the chain's first residue; source: Brevibacillus, culture supernatant (ammonium sulfate precipitate); not shown: 6xHis, C-terminal, kept; 6xHN, C-terminal, kept) VH: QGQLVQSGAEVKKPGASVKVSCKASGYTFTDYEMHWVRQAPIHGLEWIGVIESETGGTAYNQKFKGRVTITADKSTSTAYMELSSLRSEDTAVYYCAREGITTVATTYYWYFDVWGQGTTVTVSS VL: DVVMTQSPLSLPVTLGQPASISCRSSQSIVHSNGNTYLEWYLQKPGQSPQLLIYKVSNRFSGVPDRFSGSGSGTDFTLKISRVEAEDVGVYYCFQGSHVLLTFGQGTKLEIK
Response: No

Prompt: Does this binder meet the criterion kon < 8000 M⁻¹ s⁻¹? toripalimab Fab L.L101F (Fab, V domains shown, as the heavy chain of Sm3; light chain of Sm3 with this change; numbers count from the chain's first residue; source: Brevibacillus, culture supernatant (ammonium sulfate precipitate); not shown: 6xHis, C-terminal, kept; 6xHN, C-terminal, kept) VH: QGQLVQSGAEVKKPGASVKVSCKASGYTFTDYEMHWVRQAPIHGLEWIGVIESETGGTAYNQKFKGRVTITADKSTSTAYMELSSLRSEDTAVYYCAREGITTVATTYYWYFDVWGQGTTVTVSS VL: DVVMTQSPLSLPVTLGQPASISCRSSQSIVHSNGNTYLEWYLQKPGQSPQLLIYKVSNRFSGVPDRFSGSGSGTDFTLKISRVEAEDVGVYYCFQGSHVPFTFGQGTKLEIK
Response: No

Prompt: Does this binder meet the criterion kon < 8000 M⁻¹ s⁻¹? toripalimab Fab L.P100R (Fab, V domains shown, as the heavy chain of Sm3; light chain of Sm3 with this change; numbers count from the chain's first residue; source: Brevibacillus, culture supernatant (ammonium sulfate precipitate); not shown: 6xHis, C-terminal, kept; 6xHN, C-terminal, kept) VH: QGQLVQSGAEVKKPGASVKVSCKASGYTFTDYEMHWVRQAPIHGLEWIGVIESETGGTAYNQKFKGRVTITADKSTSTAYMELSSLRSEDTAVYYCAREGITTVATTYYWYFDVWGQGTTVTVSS VL: DVVMTQSPLSLPVTLGQPASISCRSSQSIVHSNGNTYLEWYLQKPGQSPQLLIYKVSNRFSGVPDRFSGSGSGTDFTLKISRVEAEDVGVYYCFQGSHVRLTFGQGTKLEIK
Response: Yes
